# TARGET ENTITY: T1, human γc on cells (KHYG-1, Ramos, HPB-ALL, Jurkat, PBMC) (human) (UniProt P31785)
# T1 sequence (looked up): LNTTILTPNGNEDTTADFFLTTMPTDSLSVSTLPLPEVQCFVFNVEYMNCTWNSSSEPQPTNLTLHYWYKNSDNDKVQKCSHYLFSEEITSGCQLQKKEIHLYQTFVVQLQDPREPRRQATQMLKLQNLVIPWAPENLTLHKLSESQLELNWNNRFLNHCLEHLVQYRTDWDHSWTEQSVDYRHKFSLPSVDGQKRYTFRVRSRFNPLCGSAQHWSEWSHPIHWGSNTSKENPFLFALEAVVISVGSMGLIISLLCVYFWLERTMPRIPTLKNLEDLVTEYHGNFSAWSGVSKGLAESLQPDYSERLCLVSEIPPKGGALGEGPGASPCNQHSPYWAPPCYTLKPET
# ASSAY COMMENT: cell-based or functional assay
Give p-STAT3 inhibition (%), IL-21 induced, Ramos B cells, flow cytometry for every item shown.
Answers are plain numbers, in %.

Answered examples (2):
BINDER: SM-05B anti-γc ScFv (scFv, part only; not given: linker and E-tag, not shown: small tags and cut ends) scFv (part 1 of 2), part: QVQLQQSGPELVKPGASVKIFCKTSGYTFTEYTMHWVKQSHGESLEWIGGIDPNTGGATYNQKFKGKATLTADKSSSTAYMELRSLTSEDSAVYYCARRRRYYGYALDYWGQGTSVTVSS scFv (part 2 of 2), part: DVLMTQTPLSLPVSLGDQASISCRSSQSIVHSNGNTYLEWYLQKPGQSPKLLIYKVSNRFSGVPDRFSGSGSGTDFTLKISRVEAEDLGVYFCSQSTHVPWTFGGGTKLEIKR
VALUE OBSERVED: 13.8
//
BINDER: SM-05A anti-γc ScFv (scFv, part only; not given: linker and E-tag, not shown: small tags and cut ends) scFv (part 1 of 2), part: EVQLQQSGPELVKPGASVKISCKTSGYTFTEYTMHWVKQSHGKSLEWIGGIDPYNGGATYNQRFKGKATLTVDKSSSTAYMEFRSLTSEDSAVYYCARRRLYYGNALDYWGQGTSVTVSS scFv (part 2 of 2), part: DVLMTQTPLSLPVSLGDQASISCRSSQSLVHSNGNTYLHWYLQRPGQSPKLLIYKVSSRFSGVPDRFSGSGSGTDFTLKISRVEAEDLGVYFCSQTTHVPFTFGSGTKLEIKR
VALUE OBSERVED: 47.3

Let's switch to this binder now.
-- ask Which p-STAT3 inhibition (%), IL-21 induced, Ramos B cells, flow cytometry value is on record for SM-05E anti-γc ScFv (scFv, part only; not given: linker and E-tag, not shown: small tags and cut ends) scFv (part 1 of 2), part: EVHLQQSGPELVKPGASVKIFCKTSGYTFTEYTMHWVKQSHGESLEWIGGIDPNTGGVTYNQKFKGKATLTADKSSSTAYMELRSLTSEDSAVYYCARRRRYYGYALDYWGQGTSVTVSS scFv (part 2 of 2), part: DVLMTQTPLSLPVSLGDQASISCRSSQSIVHSNGNTYLEWYLQKPGQSPKLLIYKVSNRFSGVPDRFSGSGSGTDFTLKISSVEAEDLGVYFCSQSTHVPFMFGSGTKLEIKR ?
-- reply 60.6
